- Target desc: AXL (Homo sapiens (Human), UniProt P30530)
- Sequence (P30530 26-894): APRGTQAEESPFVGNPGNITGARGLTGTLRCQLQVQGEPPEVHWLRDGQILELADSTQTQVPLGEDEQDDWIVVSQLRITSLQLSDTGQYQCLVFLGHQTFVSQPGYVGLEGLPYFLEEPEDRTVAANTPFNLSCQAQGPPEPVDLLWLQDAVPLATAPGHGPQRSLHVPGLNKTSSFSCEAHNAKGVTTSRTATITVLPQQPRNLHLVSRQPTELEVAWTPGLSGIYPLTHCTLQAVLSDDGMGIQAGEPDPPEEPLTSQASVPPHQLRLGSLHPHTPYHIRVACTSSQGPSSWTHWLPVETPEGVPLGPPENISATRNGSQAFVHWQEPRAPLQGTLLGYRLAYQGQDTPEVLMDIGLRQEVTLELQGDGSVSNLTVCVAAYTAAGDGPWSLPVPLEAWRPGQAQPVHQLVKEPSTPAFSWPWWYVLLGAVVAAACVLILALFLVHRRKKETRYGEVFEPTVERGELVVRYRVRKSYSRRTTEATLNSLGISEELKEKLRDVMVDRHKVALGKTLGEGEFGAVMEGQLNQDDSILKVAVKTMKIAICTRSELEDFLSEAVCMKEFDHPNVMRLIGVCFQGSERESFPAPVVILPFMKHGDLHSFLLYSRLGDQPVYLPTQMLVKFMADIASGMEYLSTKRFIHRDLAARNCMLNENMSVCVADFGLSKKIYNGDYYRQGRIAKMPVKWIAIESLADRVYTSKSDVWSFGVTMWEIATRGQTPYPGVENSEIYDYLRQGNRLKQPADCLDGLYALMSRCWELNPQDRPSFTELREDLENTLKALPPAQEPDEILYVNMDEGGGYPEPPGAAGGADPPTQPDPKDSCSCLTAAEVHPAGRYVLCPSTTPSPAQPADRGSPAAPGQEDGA
- Experimental protocol: AXL autophosphorylation ELISA in A-172 cells
- Format: cell-based
- Conditions: cellular, Gas6-stimulated, phospho-AXL ELISA
Each entry below lists one item and its recorded IC50 value.

Chemical smiles: COCCOc1cc2nccc(Oc3ncc(NC(=O)C4(C(=O)Nc5ccc(F)cc5)CC4)cc3F)c2nc1OC
IC50: 0.01 to 0.1 µM

Chemical smiles: COCCOc1cc2ncnc(Oc3ccc(NC(=O)C4(C(=O)Nc5ccc(F)cc5)CC4)cn3)c2nc1OC
IC50: 0.01 to 0.1 µM

Chemical smiles: COc1ccc(COc2cc3nccc(Oc4ncc(NC(=O)C5(C(=O)Nc6ccc(F)cc6)CC5)cc4F)c3nc2OC)cc1
IC50: 0.1 to 0.3 µM

Chemical smiles: COc1nc2c(Oc3ncc(NC(=O)C4(C(=O)Nc5ccc(F)cc5)CC4)cc3F)ccnc2cc1OCCN1CCOCC1
IC50: 0.01 to 0.1 µM

Chemical smiles: COCCOc1nc2c(Oc3ncc(NC(=O)C4(C(=O)Nc5ccc(F)cc5)CC4)cc3F)ccnc2cc1OC
IC50: > 0.3 µM

Chemical smiles: COc1cc2nccc(Oc3ncc(NC(=O)C4(C(=O)Nc5ccc(F)cc5)CC4)cc3F)c2cc1-c1nnco1
IC50: 0.01 to 0.1 µM

Chemical smiles: CNC(=O)c1cc2c(Oc3ncc(NC(=O)C4(C(=O)Nc5ccc(F)cc5)CC4)cc3F)ccnc2cc1OCCO
IC50: 0.01 to 0.1 µM

* * *

- Target desc: AXL (Homo sapiens (Human))
- Experimental protocol: AXL autophosphorylation ELISA in A-172 cells
- Conditions: cellular, Gas6-stimulated, phospho-AXL ELISA

Chemical smiles: COc1cc2nccc(Oc3ncc(NC(=O)C4(C(=O)Nc5ccc(F)cc5)CC4)cc3F)c2nc1OCCCN1CCOCC1
Target desc: AXL (Homo sapiens (Human))
IC50: > 300 nM
//
Chemical smiles: COc1cc2nccc(Oc3ncc(NC(=O)C4(C(=O)Nc5ccc(F)cc5)CC4)cc3Cl)c2cc1-c1ncc[nH]1
Target desc: AXL (Homo sapiens (Human))
IC50: 10 to 100 nM
//
Chemical smiles: COc1cc2nccc(Oc3ccc(NC(=O)C4(C(=O)Nc5ccc(F)cc5)CC4)cn3)c2cc1C(N)=O
Target desc: AXL (Homo sapiens (Human))
IC50: 10 to 100 nM
